target.entity: VEGF receptor (human flk-1, KDR, VEGFR2) kinase domain (Homo sapiens, UniProt P35968)
Construct: VEGF receptor (human flk-1, KDR, VEGFR2) kinase domain; made in house
Sequence (P35968 834-1162 limits assumed): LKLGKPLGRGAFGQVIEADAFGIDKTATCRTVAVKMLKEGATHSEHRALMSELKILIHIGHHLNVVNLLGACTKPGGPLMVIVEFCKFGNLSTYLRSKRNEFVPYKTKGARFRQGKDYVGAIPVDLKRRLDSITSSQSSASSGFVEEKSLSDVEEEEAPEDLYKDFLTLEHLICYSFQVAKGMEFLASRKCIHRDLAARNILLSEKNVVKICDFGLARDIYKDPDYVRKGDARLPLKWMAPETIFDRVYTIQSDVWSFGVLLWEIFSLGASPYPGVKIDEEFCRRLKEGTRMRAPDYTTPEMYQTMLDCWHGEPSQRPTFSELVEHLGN
test: Inhibition of VEGF receptor kinase activity (ELISA)
Assay type: biochemical
measurement.setup: 300 nM compound; 40 μM ATP; read-out: VEGFR2 % inh. @ 300 nM
readout.kind: inhibition at 0.3 µM (%)

Solved cases below.
{"columns": ["compound", "target.entity", "readout.kind", "unit", "reported"],
 "data": [
  ["CC(C)OCc1ccc2c(c1)c1c3c(c4c(c1n2CCCOC(=O)C(N)CCCCN)Cc1ccccc1-4)C(=O)NC3 (stereo not shown)", "VEGF receptor (human flk-1, KDR, VEGFR2) kinase domain (Homo sapiens, UniProt P35968)", "inhibition at 0.3 µM", "%", 60],
  ["CCCSCc1ccc2c(c1)c1c3c(c4c(c1n2CCCOC(=O)C(F)(F)F)Cc1ccccc1-4)C(=O)NC3", "VEGF receptor (human flk-1, KDR, VEGFR2) kinase domain (Homo sapiens, UniProt P35968)", "inhibition at 0.3 µM", "%", 37]
]}

I. CC(C)OCc1ccc2[nH]c3c4c(c5c(c3c2c1)CNC5=O)-c1ccccc1C4
II. CC(C)OCc1ccc2c(c1)c1c3c(c4c(c1n2CCCOC(=O)CCCCCN)Cc1ccccc1-4)C(=O)NC3
In the pair I and II , the larger recorded inhibition at 0.3 µM belongs to which? Return value: the label identifying the chosen record.
II
(II: 57%, I: 33%)

* * *

target.entity: MLK2 (Homo sapiens)
Construct: fused on or other part: GST tag
Sequence (Q02779 98-440 limits assumed): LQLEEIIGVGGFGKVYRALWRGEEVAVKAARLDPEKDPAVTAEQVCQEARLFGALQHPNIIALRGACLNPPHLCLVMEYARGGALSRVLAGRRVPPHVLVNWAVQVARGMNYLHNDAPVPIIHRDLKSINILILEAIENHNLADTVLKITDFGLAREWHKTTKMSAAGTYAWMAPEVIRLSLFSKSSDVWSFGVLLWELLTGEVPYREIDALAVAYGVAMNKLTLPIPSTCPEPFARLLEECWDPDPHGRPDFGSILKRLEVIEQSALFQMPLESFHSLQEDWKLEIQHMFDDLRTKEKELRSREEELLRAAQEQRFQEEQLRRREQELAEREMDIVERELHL
test: Inhibition of Mixed Lineage Kinase-2 (MLK2) activity
Format: biochemical
measurement.setup: 100 nM compound; 100 μM ATP
readout.kind: inhibition at 0.1 µM (%)

a. COC(C)c1ccc2c(c1)c1c3c(c4c(c1n2CCCO)Cc1ccccc1-4)C(=O)NC3 (stereo not shown)
b. CC(C)OCc1ccc2c(c1)c1c3c(c4c(c1n2CCCOC(=O)C(N)CCCCN)Cc1ccccc1-4)C(=O)NC3 (stereo not shown)
c. CC(C)CC(N)C(=O)OCCCn1c2ccccc2c2c3c(c4c(c21)Cc1ccccc1-4)C(=O)NC3 (stereo not shown) [C, reference compound]
Please rank everything listed above by inhibition at 0.1 µM, with the minimum value first. Lab note: record answer as labels in requested order.
c, b, a

* * *

target.entity: MLK1 (Homo sapiens, UniProt P80192)
Construct: 1 μg/ml of baculoviral GST-MLK1KD; GST (N); made in house
Sequence (P80192 144-412 limits assumed, species assumed): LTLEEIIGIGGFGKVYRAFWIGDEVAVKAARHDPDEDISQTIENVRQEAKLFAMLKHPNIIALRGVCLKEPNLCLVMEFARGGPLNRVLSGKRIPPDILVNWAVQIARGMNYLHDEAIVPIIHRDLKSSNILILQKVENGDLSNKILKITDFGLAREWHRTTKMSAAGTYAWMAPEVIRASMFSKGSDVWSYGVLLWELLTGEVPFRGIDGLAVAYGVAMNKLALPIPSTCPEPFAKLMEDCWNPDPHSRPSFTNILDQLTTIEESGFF
test: Inhibition of Mixed Lineage Kinase-1 (MLK1) activity
Assay type: biochemical
measurement.setup: 100 nM compound; 60 μM ATP
Protocol: The kinase activity of MLK1 was assessed using the Millipore Multiscreen TCA “in-plate” format as described for protein kinase C (Pitt & Lee, J. Biomol. Screening, 1: 47-51, 1996). Briefly, each 50-μl assay mixture contained 20 mM Hepes, pH 7.2, 5 mM EGTA, 15 mM MgCl2, 25 mM β-glycerophosphate, 60 μM ATP, 0.25 μCi [γ-^32P]ATP, 0.1% BSA, 500 μ/ml myelin basic protein (UBI #13-104), 2% DMSO, […], and 1 μg/ml of baculoviral GST-MLK1KD. Samples were incubated for 15 min at 37° C. […]
readout.kind: inhibition at 0.1 µM (%)

Solved cases below.
{"columns": ["molecule", "readout.kind", "unit", "reported"],
 "data": [
  ["CC(C)OCc1ccc2c(c1)c1c3c(c4c(c1n2CCCOC(=O)CCCN(C)C)Cc1ccccc1-4)C(=O)NC3", "inhibition at 0.1 µM", "%", 40],
  ["CC(C)OCc1ccc2c(c1)c1c3c(c4c(c1n2CCCOC(=O)C(N)CCCCN)Cc1ccccc1-4)C(=O)NC3 (centres unmarked)", "inhibition at 0.1 µM", "%", 44],
  ["CCC(O)c1ccc2c(c1)c1c3c(c4c(c1n2CCCO)Cc1ccccc1-4)C(=O)NC3 (centres unmarked)", "inhibition at 0.1 µM", "%", 45]
]}

1. O=C1NCc2c1c1c(c3c2c2cc(CSc4ccccn4)ccc2n3CCCO)Cc2ccccc2-1
2. CC(C)OCc1ccc2c(c1)c1c3c(c4c(c1n2CCCOC(=O)CCCCCN)Cc1ccccc1-4)C(=O)NC3
In the pair 1 and 2 , the larger recorded inhibition at 0.1 µM belongs to which? Return value: the label identifying the chosen record.
1
(1: 58%, 2: 31%)

* * *

target.entity: MLK3 (Homo sapiens, UniProt Q16584)
Construct: 2 μg/ml of baculoviral GST-MLK3KD; GST (N); made in house
Sequence (Q16584 117-379 limits assumed, species assumed): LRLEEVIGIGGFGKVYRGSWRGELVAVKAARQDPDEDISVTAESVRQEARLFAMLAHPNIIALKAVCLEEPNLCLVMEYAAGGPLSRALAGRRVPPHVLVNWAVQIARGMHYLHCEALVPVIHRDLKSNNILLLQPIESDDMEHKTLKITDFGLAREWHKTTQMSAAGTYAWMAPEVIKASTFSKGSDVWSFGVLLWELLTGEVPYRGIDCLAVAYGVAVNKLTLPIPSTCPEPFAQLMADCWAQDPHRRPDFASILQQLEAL
test: Inhibition of Mixed Lineage Kinase-3 (MLK3) activity
Format: biochemical
measurement.setup: 100 μM ATP; values without % sign
Method: The kinase activity of MLK1 was assessed using the Millipore Multiscreen TCA “in-plate” format as described for protein kinase C (Pitt & Lee, J. Biomol. Screening, 1: 47-51, 1996). Briefly, each 50-μl assay mixture contained 20 mM Hepes, pH 7.2, 5 mM EGTA, 15 mM MgCl2, 25 mM β-glycerophosphate, 60 μM ATP, 0.25 μCi [γ-^32P]ATP, 0.1% BSA, 500 μ/ml myelin basic protein (UBI #13-104), 2% DMSO, 1 μM of test compound, and 1 μg/ml of baculoviral GST-MLK1KD. Samples were incubated for 15 min at 37° C. […]
readout.kind: IC50 (nM)

{"columns": ["molecule", "target.entity", "IC50 (nM)"],
 "data": [
  ["CCOCc1ccc2[nH]c3c4c(c5c(c3c2c1)CNC5=O)-c1ccccc1C4 [Compound 31]", "MLK3 (Homo sapiens, UniProt Q16584)", 29]
]}

P. CC(C)OCc1ccc2c(c1)c1c3c(c4c(c1n2CCCOC(=O)CN)Cc1ccccc1-4)C(=O)NC3 [Compound 18]
Q. CCCOCc1ccc2c(c1)c1c3c(c4c(c1n2CCCO)Cc1ccccc1-4)C(=O)NC3 [Compound 8]
In the pair P and Q , the larger recorded IC50 belongs to which? Return value: the label identifying the chosen record.
P
(P: 23 nM, Q: 13 nM)

* * *

target.entity: MLK3 (Homo sapiens, UniProt Q16584)
Construct: 2 μg/ml of baculoviral GST-MLK3KD; GST (N); made in house
test: Inhibition of Mixed Lineage Kinase-3 (MLK3) activity
Format: biochemical
measurement.setup: 100 nM compound; 100 μM ATP
readout.kind: inhibition at 0.1 µM (%)

{"columns": ["compound", "unit", "inhibition at 0.1 µM"],
 "data": [
  ["COC(C)c1ccc2[nH]c3c4c(c5c(c3c2c1)CNC5=O)-c1ccccc1C4 (racemic)", "%", 41],
  ["COc1ccc2[nH]c3c4c(c5c(c3c2c1)CNC5=O)-c1ccccc1C4 [D, reference compound]", "%", 43],
  ["CC(O)c1ccc2[nH]c3c4c(c5c(c3c2c1)CNC5=O)-c1ccccc1C4 (stereo not shown)", "%", 62],
  ["CC(C)OC(C)c1ccc2c(c1)c1c3c(c4c(c1n2CCCO)Cc1ccccc1-4)C(=O)NC3 (stereo not shown)", "%", 49]
]}

* * *

target.entity: MLK2 (Homo sapiens)
Construct: fused on or other part: GST tag
test: Inhibition of Mixed Lineage Kinase-2 (MLK2) activity
Assay type: biochemical
measurement.setup: 100 nM compound; 100 μM ATP
readout.kind: inhibition at 0.1 µM (%)

{"columns": ["compound", "target.entity", "reported"],
 "data": [
  ["CC[C@@H](C)OCc1ccc2c(c1)c1c3c(c4c(c1n2CCCO)Cc1ccccc1-4)C(=O)NC3", "MLK2 (Homo sapiens)", 45],
  ["CC(C)(C)OCc1ccc2c(c1)c1c3c(c4c(c1n2CCCO)Cc1ccccc1-4)C(=O)NC3", "MLK2 (Homo sapiens)", 50],
  ["CC[C@H](C)OCc1ccc2c(c1)c1c3c(c4c(c1n2CCCO)Cc1ccccc1-4)C(=O)NC3", "MLK2 (Homo sapiens)", 51],
  ["O=C1NCc2c1c1c(c3c2c2ccccc2n3CCCO)Cc2ccccc2-1 [Compound B, reference compound]", "MLK2 (Homo sapiens)", 46]
]}
